test system: S. aureus; assay: Microdilution MIC/MMC with resazurin; format: cell-based, Staphylococcus aureus; settings: Staphylococcus aureus; S. aureus isolate; compounds 1–8; read-out: MIC
Could you please mark Satisfied for values of MIC below 1000 µg/mL and Not satisfied for values at or above it?

Some entries whose results are on file:
O=C1NCC(c2ccccc2)O1 (stereo not shown) [Compound 7, 5-Phenyl-1,3-oxazolidin-2-one]
Not satisfied
S=C1NC[C@H](c2ccccc2)O1 [Compound 5, (S)-5-phenyl-1,3-oxazolidine-2-thione]
Not satisfied
CSC(=S)NCCc1ccc(O)cc1 [Compound 2]
Satisfied
O=C(O)C1CSC(=S)N1 (stereo not shown) [Compound 3, 2-Thioxothiazolidine-4-carboxylic Acid]
Satisfied

Ask: Is MIC of CSC(=S)NCCc1ccccc1 [Compound 1, Methyl phenethylcarbamodithioate] strictly below 1000 µg/mL?
Reply: Not satisfied

Ask: Now the same for O=C1NCC(c2ccccc2)S1 (stereo not shown) [Compound 6, 5-phenyl-1,3-thiazolidin-2-one]
Reply: Not satisfied

Ask: And S=C1NCC(c2ccccc2)O1 (racemic) [Compound 4, rac-5-Phenyl-1,3-oxazolidine-2-thione] ?
Reply: Not satisfied

---

assay: DPPH radical scavenging assay; conditions: 50 µM, 20 min; mean ± SD
Entries are grouped by DPPH Scavenging Ability into these classes: LOW (below 2%), MEDIUM (2% to below 10%), HIGH (10% or more)

Ask: Using the reported DPPH Scavenging Ability, which band applies to Oc1ccc(CCN=C=S)cc1 [Compound 8, 2-(4-hydroxyphenyl)ethyl isothiocyanate] ?
Reply: MEDIUM

Ask: Same thing, different compound: O=c1c(O)c(-c2ccc(O)c(O)c2)oc2cc(O)cc(O)c12 [Quercetin, reference compound]
Reply: HIGH

Ask: Would you kindly repeat that for O=C(O)C1CSC(=S)N1 (stereo not drawn) ?
Reply: LOW

Ask: Repeat with CSC(=S)NCCc1ccccc1 [Compound 1, Methyl phenethylcarbamodithioate]
Reply: MEDIUM

---

tested on: T. viride ATCC 13233; experiment: Microdilution MIC/MMC; assay type: cell-based, Trichoderma viride; details: T. viride ATCC 13233; compounds 1–8
Below, each entry is listed alongside its reported MMC.
Your answer is read as mg/mL, so omit the unit and give the number.

The cases that follow already have their MMC on record.
S=C1NCC(c2ccccc2)O1 (racemic)
2.5
O=C1NCC(c2ccccc2)O1 (centres unmarked)
2.5
CSC(=S)NCCc1ccc(O)cc1
0.312
CSC(=S)NCCc1ccccc1 [Compound 1, Methyl phenethylcarbamodithioate]
1.25
O=C(O)C1CSC(=S)N1 (centres unmarked)
5

Now for the compound whose MMC we want.
Ask: What value of MMC has been recorded for this entry: S=C1NC[C@H](c2ccccc2)O1 [Compound 5, (S)-5-phenyl-1,3-oxazolidine-2-thione]
Reply: 5

---

test: ABTS radical scavenging assay; settings: 25 µM; mean ± SD
This section presents molecules with their documented ABTS Scavenging Ability values.
State just the number; it will be interpreted in %.

CSC(=S)NCCc1ccccc1 [Compound 1, Methyl phenethylcarbamodithioate]
1.7
O=C(O)C1CSC(=S)N1 (stereo not drawn)
1.2
CSC(=S)NCCc1ccc(O)cc1
7.6
O=C1NCC(c2ccccc2)O1 (stereo not drawn)
1.3
Oc1ccc(CCN=C=S)cc1 [Compound 8, 2-(4-hydroxyphenyl)ethyl isothiocyanate]
2.9

Ask: Consider the molecule S=C1NC[C@H](c2ccccc2)O1 [Compound 5, (S)-5-phenyl-1,3-oxazolidine-2-thione] and give its measured ABTS Scavenging Ability.
Reply: 6.6

Ask: S=C1NCC(c2ccccc2)O1 (racemic) , same question.
Reply: 0.9

Ask: And for Cc1c(C)c2c(c(C)c1O)CCC(C)(C(=O)O)O2 (stereo not drawn) [Trolox, reference compound] ?
Reply: 97.5

Ask: Next: O=C1NCC(c2ccccc2)S1 (stereo not drawn)
Reply: 2.6
